- Assay System: Insulin receptor (Homo sapiens) (UniProt P06213)
- Sequence (P06213 28-758 limits assumed): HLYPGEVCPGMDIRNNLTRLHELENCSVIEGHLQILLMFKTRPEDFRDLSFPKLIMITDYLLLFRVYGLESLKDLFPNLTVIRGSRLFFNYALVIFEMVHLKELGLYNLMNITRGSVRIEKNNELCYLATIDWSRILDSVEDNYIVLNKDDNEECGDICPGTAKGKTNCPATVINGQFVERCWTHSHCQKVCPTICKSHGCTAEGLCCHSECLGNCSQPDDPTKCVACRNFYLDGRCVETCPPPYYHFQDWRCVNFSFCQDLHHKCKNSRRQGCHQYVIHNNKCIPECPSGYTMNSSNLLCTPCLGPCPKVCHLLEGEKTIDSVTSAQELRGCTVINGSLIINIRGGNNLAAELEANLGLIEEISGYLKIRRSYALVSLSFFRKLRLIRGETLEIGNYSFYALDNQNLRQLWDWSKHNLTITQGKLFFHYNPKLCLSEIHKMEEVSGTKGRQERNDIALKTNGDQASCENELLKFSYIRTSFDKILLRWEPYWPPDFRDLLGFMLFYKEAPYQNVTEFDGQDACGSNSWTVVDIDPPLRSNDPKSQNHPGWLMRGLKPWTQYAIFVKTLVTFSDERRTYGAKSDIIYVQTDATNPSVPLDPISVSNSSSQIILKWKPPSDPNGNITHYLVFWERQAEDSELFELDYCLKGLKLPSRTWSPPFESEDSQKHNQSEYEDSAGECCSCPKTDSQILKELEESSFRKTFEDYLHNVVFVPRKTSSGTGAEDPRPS
- Sequence (P06213 763-1382 limits assumed): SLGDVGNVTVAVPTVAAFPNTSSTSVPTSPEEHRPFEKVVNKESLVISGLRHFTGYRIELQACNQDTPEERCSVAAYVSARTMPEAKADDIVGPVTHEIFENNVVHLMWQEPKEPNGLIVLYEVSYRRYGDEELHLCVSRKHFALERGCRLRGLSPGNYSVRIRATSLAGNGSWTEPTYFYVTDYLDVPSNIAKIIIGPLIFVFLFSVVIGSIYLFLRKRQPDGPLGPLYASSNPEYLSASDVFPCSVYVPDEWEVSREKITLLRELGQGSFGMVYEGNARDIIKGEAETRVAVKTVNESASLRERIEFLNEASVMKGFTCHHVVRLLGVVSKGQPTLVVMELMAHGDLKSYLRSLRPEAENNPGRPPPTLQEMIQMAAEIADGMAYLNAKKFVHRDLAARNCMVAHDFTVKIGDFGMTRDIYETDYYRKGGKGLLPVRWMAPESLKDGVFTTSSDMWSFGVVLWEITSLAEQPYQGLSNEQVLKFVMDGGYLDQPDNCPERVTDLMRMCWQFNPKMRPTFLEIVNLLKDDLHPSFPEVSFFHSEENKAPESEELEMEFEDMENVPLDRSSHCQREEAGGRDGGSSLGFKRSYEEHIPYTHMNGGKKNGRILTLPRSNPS
- Condition Label: at 1 µM
Metric Name: residual activity (%)
Give bare numbers, in %.

Some molecules with recorded residual activity:
1) Oc1n[nH]c2nnc(-c3c(-c4ccccc4)nn4ccccc34)cc12: 47
2) Oc1c2ccccc2c2c3c(cccc13)N=N2: 81
3) Cc1cc(Nc2nc(-c3ccccc3)nc3ccccc23)n[nH]1: 16

Hey, can you go through the list below and give me residual activity for every item?
1. C[C@@H](N)[C@H]1CC[C@H](C(=O)Nc2ccncc2)CC1
2. Cn1cc(/C=C2\C(=O)Nc3ccc(S(N)(=O)=O)cc32)c2ccccc21
3. CC(C)n1cnc2c(NCc3ccccc3)nc(NCCCO)nc21

Key:
100
91
91

Hey, can you go through the list below and give me residual activity for every item?
1. COc1cc2ncnc(Nc3ccc(O)c(Br)c3)c2cc1OC
2. N#CCCc1ccc2c(c1)-c1[nH]c3ccc([N+](=O)[O-])cc3c1CC(=O)N2
3. N#Cc1cnc2cnc(NCc3cccnc3)cc2c1Nc1ccc(F)c(Cl)c1
4. Cn1cnc2cc3c(Nc4cccc(Br)c4)ncnc3cc21

Key:
1: 114; 2: 118; 3: 136; 4: 102
